Tested on: HT-29
Assay: Chemosensitivity, 96 h continuous exposure, MTT assay
Format: cell-based, human
Settings: IC50 ARPE-19 / IC50 HT29
# key: entry, value: Selectivity index (ARPE19)
I only need the number, thanks.

Reference set (5 entries):
O=P(O)(O)Oc1ccccc1.[Zn+2].[Zn+2].[Zn+2].c1ccc(-c2csc(NCCN(CCNc3nc(-c4ccccn4)cs3)CCNc3nc(-c4ccccn4)cs3)n2)nc1.c1ccc(-c2csc(NCCN(CCNc3nc(-c4ccccn4)cs3)CCNc3nc(-c4ccccn4)cs3)n2)nc1 [[L2Zn3(O3POPh)]4+] : 607.52
[Cu+2].[Cu+2].[Cu+2].c1ccc(-c2csc(NCCN(CCNc3nc(-c4ccccn4)cs3)CCNc3nc(-c4ccccn4)cs3)n2)nc1.c1ccc(-c2csc(NCCN(CCNc3nc(-c4ccccn4)cs3)CCNc3nc(-c4ccccn4)cs3)n2)nc1 [[L2Cu3]6+] : 245.93
CC(=O)[O-].CC(=O)[O-].CC(=O)[O-].CC(=O)[O-].CC(=O)[O-].CC(=O)[O-].[Zn+2].[Zn+2].[Zn+2].c1ccc(-c2csc(NCCN(CCNc3nc(-c4ccccn4)cs3)CCNc3nc(-c4ccccn4)cs3)n2)nc1.c1ccc(-c2csc(NCCN(CCNc3nc(-c4ccccn4)cs3)CCNc3nc(-c4ccccn4)cs3)n2)nc1 [[L2Zn3]6+] : 930.47
O=P([O-])([O-])Oc1ccccc1.[Cu+2].[Cu+2].[Cu+2].c1ccc(-c2csc(NCCN(CCNc3nc(-c4ccccn4)cs3)CCNc3nc(-c4ccccn4)cs3)n2)nc1.c1ccc(-c2csc(NCCN(CCNc3nc(-c4ccccn4)cs3)CCNc3nc(-c4ccccn4)cs3)n2)nc1 [[L2Cu3(O3POPh)]4+] : 165.81
O=S(=O)(O)O.[Zn+2].[Zn+2].[Zn+2].c1ccc(-c2csc(NCCN(CCNc3nc(-c4ccccn4)cs3)CCNc3nc(-c4ccccn4)cs3)n2)nc1.c1ccc(-c2csc(NCCN(CCNc3nc(-c4ccccn4)cs3)CCNc3nc(-c4ccccn4)cs3)n2)nc1 [[L2Zn3(SO4)]4+] : 711.22

Selectivity index (ARPE19) of O=P([O-])([O-])[O-].[Cu+2].[Cu+2].[Cu+2].c1ccc(-c2csc(NCCN(CCNc3nc(-c4ccccn4)cs3)CCNc3nc(-c4ccccn4)cs3)n2)nc1.c1ccc(-c2csc(NCCN(CCNc3nc(-c4ccccn4)cs3)CCNc3nc(-c4ccccn4)cs3)n2)nc1 [[L2Cu3(PO4)]3+] , assay on HT-29, is 502.36
